- Test system: Escherichia coli EC14
- Assay Overview: broth micro-dilution MIC
- Type: cell-based
Provide the recorded MIC for the entries that follow.

[
  {
    "Compound": "CNC(CC(C)C)C(=O)NC1C(=O)NC(CC(N)=O)C(=O)NC2C(=O)NC3C(=O)NC(C(=O)NC(C(=O)O)c4cc(O)cc(O)c4-c4cc3ccc4O)C(OC3CC(C)(N)C(O)C(C)O3)c3ccc(c(Cl)c3)Oc3cc2cc(c3OC2OC(CO)C(O)C(O)C2OC2CC(C)(NCc3ccccn3)C(O)C(C)O2)Oc2ccc(cc2Cl)C1O (centres unmarked)",
    "Result Type": "MIC",
    "Value Reported": "> 64 µg/mL"
  }
]

Could you now look at the following compound, please?
Recall the recorded MIC for CC(C)CC(C(=O)NC1C(=O)NC(CC(N)=O)C(=O)NC2C(=O)NC3C(=O)NC(C(=O)NC(C(=O)O)c4cc(O)cc(O)c4-c4cc3ccc4O)C(OC3CC(C)(N)C(O)C(C)O3)c3ccc(c(Cl)c3)Oc3cc2cc(c3OC2OC(CO)C(O)C(O)C2OC2CC(C)(NCc3ccccn3)C(O)C(C)O2)Oc2ccc(cc2Cl)C1O)N(C)Cc1ccccn1 (centres unmarked) with Escherichia coli EC14 and state it.
> 64 µg/mL

* * *

- System: vancomycin-resistant enterococci
- Assay Overview: broth micro-dilution, mean geometric MIC
- Assay type: cell-based, Enterococcus faecium and Enterococcus faecalis
- Condition Info: enterococci, 24-hour incubation
Provide the recorded mean geometric MIC, Vancomycin Resistant Strains for the entries that follow.
One number for each entry, in µg/mL.

[
  {
    "Compound": "CC(C)CC(C(=O)NC1C(=O)NC(CC(N)=O)C(=O)NC2C(=O)NC3C(=O)NC(C(=O)NC(C(=O)O)c4cc(O)cc(O)c4-c4cc3ccc4O)C(OC3CC(C)(NCc4ccc(-c5ccc(Cl)cc5)cc4)C(O)C(C)O3)c3ccc(c(Cl)c3)Oc3cc2cc(c3OC2OC(CO)C(O)C(O)C2OC2CC(C)(NCc3ccc(-c4ccc(Cl)cc4)cc3)C(O)C(C)O2)Oc2ccc(cc2Cl)C1O)N(C)Cc1ccc(-c2ccc(Cl)cc2)cc1.O=C(O)C(F)(F)F (centres unmarked) [Compound 255]",
    "Value Reported": 64
  }
]

Could you now look at the following compound, please?
Which mean geometric MIC, Vancomycin Resistant Strains is listed for CNC(CC(C)C)C(=O)NC1C(=O)NC(CC(N)=O)C(=O)NC2C(=O)NC3C(=O)NC(C(=O)NC(C(=O)O)c4cc(O)cc(O)c4-c4cc3ccc4O)C(OC3CC(C)(N)C(O)C(C)O3)c3ccc(c(Cl)c3)Oc3cc2cc(c3OC2OC(CO)C(O)C(O)C2OC2CC(C)(NCc3ccnc4ccccc34)C(O)C(C)O2)Oc2ccc(cc2Cl)C1O (centres unmarked) [Compound 27] ?
45

* * *

- System: Haemophilus influenzae RD
- Assay Overview: broth micro-dilution MIC
- Type: cell-based
- Condition Info: Haemophilus influenzae RD
Provide the recorded MIC for the entries that follow.
Give bare numbers, in µg/mL.

Below, each entry is followed by its recorded MIC result.
[
  {
    "Compound": "CNC(CC(C)C)C(=O)NC1C(=O)NC(CC(N)=O)C(=O)NC2C(=O)NC3C(=O)NC(C(=O)NC(C(=O)O)c4cc(O)cc(O)c4-c4cc3ccc4O)C(OC3CC(C)(N)C(O)C(C)O3)c3ccc(c(Cl)c3)Oc3cc2cc(c3OC2OC(CO)C(O)C(O)C2OC2CC(C)(NCCCCC#Cc3ccccc3)C(O)C(C)O2)Oc2ccc(cc2Cl)C1O (stereo not drawn)",
    "Readout Units": "µg/mL",
    "Value Reported": 8
  },
  {
    "Compound": "CNC(CC(C)C)C(=O)NC1C(=O)NC(CC(N)=O)C(=O)NC2C(=O)NC3C(=O)NC(C(=O)NC(C(=O)O)c4cc(O)cc(O)c4-c4cc3ccc4O)C(OC3CC(C)(N)C(O)C(C)O3)c3ccc(c(Cl)c3)Oc3cc2cc(c3OC2OC(CO)C(O)C(O)C2OC2CC(C)(NCc3ccc(C#Cc4ccccc4)cc3)C(O)C(C)O2)Oc2ccc(cc2Cl)C1O (stereo not drawn)",
    "Readout Units": "µg/mL",
    "Value Reported": 16
  },
  {
    "Compound": "CNC(CC(C)C)C(=O)NC1C(=O)NC(CC(N)=O)C(=O)NC2C(=O)NC3C(=O)NC(C(=O)NC(C(=O)O)c4cc(O)cc(O)c4-c4cc3ccc4O)C(OC3CC(C)(N)C(O)C(C)O3)c3ccc(c(Cl)c3)Oc3cc2cc(c3OC2OC(CO)C(O)C(O)C2OC2CC(C)(NCc3ccc(OC(F)F)cc3)C(O)C(C)O2)Oc2ccc(cc2Cl)C1O (stereo not drawn)",
    "Readout Units": "µg/mL",
    "Value Reported": 32
  },
  {
    "Compound": "CNC(CC(C)C)C(=O)NC1C(=O)NC(CC(N)=O)C(=O)NC2C(=O)NC3C(=O)NC(C(=O)NC(C(=O)O)c4cc(O)cc(O)c4-c4cc3ccc4O)C(OC3CC(C)(N)C(O)C(C)O3)c3ccc(c(Cl)c3)Oc3cc2cc(c3OC2OC(CO)C(O)C(O)C2OC2CC(C)(NCCc3ccc4ccccc4c3)C(O)C(C)O2)Oc2ccc(cc2Cl)C1O (stereo not drawn)",
    "Readout Units": "µg/mL",
    "Value Reported": 4
  }
]

Which MIC is listed for CNC(CC(C)C)C(=O)NC1C(=O)NC(CC(N)=O)C(=O)NC2C(=O)NC3C(=O)NC(C(=O)NC(C(=O)O)c4cc(O)cc(O)c4-c4cc3ccc4O)C(OC3CC(C)(N)C(O)C(C)O3)c3ccc(c(Cl)c3)Oc3cc2cc(c3OC2OC(CO)C(O)C(O)C2OC2CC(C)(NCc3ccc(-c4ccccc4[N+](=O)[O-])c([N+](=O)[O-])c3)C(O)C(C)O2)Oc2ccc(cc2Cl)C1O (stereo not drawn) ?
32

* * *

- System: Staphylococcus aureus S13E
- Assay type: cell-based
Provide the recorded MIC for the entries that follow.
Numbers only, in µg/mL.

[
  {
    "Compound": "CC(C)CC(C(=O)NC1C(=O)NC(CC(N)=O)C(=O)NC2C(=O)NC3C(=O)NC(C(=O)NC(C(=O)O)c4cc(O)cc(O)c4-c4cc3ccc4O)C(OC3CC(C)(N)C(O)C(C)O3)c3ccc(c(Cl)c3)Oc3cc2cc(c3OC2OC(CO)C(O)C(O)C2OC2CC(C)(NCc3c4c(cc5ccccc35)CCCC4)C(O)C(C)O2)Oc2ccc(cc2Cl)C1O)N(C)Cc1c2c(cc3ccccc13)CCCC2 (stereo not drawn) [Compound 262]",
    "MIC / µg/mL": 1
  }
]

Could you now look at the following compound, please?
Which MIC is listed for CNC(CC(C)C)C(=O)NC1C(=O)NC(CC(N)=O)C(=O)NC2C(=O)NC3C(=O)NC(C(=O)NC(C(=O)O)c4cc(O)cc(O)c4-c4cc3ccc4O)C(OC3CC(C)(NCc4ccc(SC)cc4)C(O)C(C)O3)c3ccc(c(Cl)c3)Oc3cc2cc(c3OC2OC(CO)C(O)C(O)C2OC2CC(C)(NCc3ccc(SC)cc3)C(O)C(C)O2)Oc2ccc(cc2Cl)C1O (stereo not drawn) [Compound 278] ?
1

* * *

- Tested on: Staphylococcus aureus SA1199B
- Type: cell-based
Provide the recorded MIC for the entries that follow.
One number for each entry, in µg/mL.

[
  {
    "Compound": "CNC(CC(C)C)C(=O)NC1C(=O)NC(CC(N)=O)C(=O)NC2C(=O)NC3C(=O)NC(C(=O)NC(C(=O)O)c4cc(O)cc(O)c4-c4cc3ccc4O)C(OC3CC(C)(N)C(O)C(C)O3)c3ccc(c(Cl)c3)Oc3cc2cc(c3OC2OC(CO)C(O)C(O)C2OC2CC(C)(NCc3ccc(S(=O)(=O)c4ccc(Cl)cc4)cc3)C(O)C(C)O2)Oc2ccc(cc2Cl)C1O (stereo not drawn)",
    "MIC [µg/mL]": 0.5
  }
]

Give MIC for all compounds that follow.
1. CNC(CC(C)C)C(=O)NC1C(=O)NC(CC(N)=O)C(=O)NC2C(=O)NC3C(=O)NC(C(=O)NC(C(=O)O)c4cc(O)cc(O)c4-c4cc3ccc4O)C(OC3CC(C)(N)C(O)C(C)O3)c3ccc(c(Cl)c3)Oc3cc2cc(c3OC2OC(CO)C(O)C(O)C2OC2CC(C)(NCc3cc4ccccc4s3)C(O)C(C)O2)Oc2ccc(cc2Cl)C1O (stereo not drawn)
2. CC(C)CC(C(=O)NC1C(=O)NC(CC(N)=O)C(=O)NC2C(=O)NC3C(=O)NC(C(=O)NC(C(=O)O)c4cc(O)cc(O)c4-c4cc3ccc4O)C(OC3CC(C)(NCc4cccc5c([N+](=O)[O-])cccc45)C(O)C(C)O3)c3ccc(c(Cl)c3)Oc3cc2cc(c3OC2OC(CO)C(O)C(O)C2OC2CC(C)(N)C(O)C(C)O2)Oc2ccc(cc2Cl)C1O)N(C)Cc1cccc2c([N+](=O)[O-])cccc12 (stereo not drawn)

1: 1; 2: 4
